Entry source: patent US20180273635A1

- tested.system: T1, HER2 expressed on the surface of cells (human, UniProt P04626 23-1255)
- T1 construct: whole, on cells; also called ErbB2
- measurement.protocol: flow cytometry on SKBR3 cells, n=1; B50 = concentration at 50% of Bmax
Please respond with Criterion met when measured B50 is strictly beneath 10 nM, and with Criterion not met in all other cases.

[[record]]
binder = "Variant 14023 (antibody, name in Kabat numbering, V domains shown, also called v14023) VH: EVQLVESGGGLVQPGGSLRLSCAASGFTFQDYTMDWVRQAPGKGLEWVGDVNPNSGGSIYNQRFKGRFTFSVDRSWNTLYLQMNSLRAEDTAVYYCARNLGPWFYFDYWGQGTLVTVSS VL: DIQMTQSPSSLSASVGDRVTITCKASQDVSIGVAWYQQKPGKAPKLLIWSASYRYTGVPSRFSGSGSGTDFTLTISSLQPEDFATYYCQQYYIYPYTFGQGTKVEIKR"
class = "Criterion met"

[[record]]
binder = "Variant 14018 (antibody, name in Kabat numbering, V domains shown, also called v14018) VH: EVQLVESGGGLVQPGGSLRLSCAASGFTFTDYTMDWVRQAPGKGLEWVGDVNPNSGGSIYNQRFKGRFTFSVDRSWNTLYLQMNSLRAEDTAVYYCARNLGPSFYFDYWGQGTLVTVSS VL: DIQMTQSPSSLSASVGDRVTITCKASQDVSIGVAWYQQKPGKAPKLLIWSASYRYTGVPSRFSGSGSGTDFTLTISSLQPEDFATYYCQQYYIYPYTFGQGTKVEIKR"
class = "Criterion met"

[[record]]
binder = "Variant 14019 (antibody, name in Kabat numbering, V domains shown, also called v14019) VH: EVQLVESGGGLVQPGGSLRLSCAASGFTFQDYTMDWVRQAPGKGLEWVGDVNPNSGGSIYNQRFKGRFTFSVDRSWNTLYLQMNSLRAEDTAVYYCARNLGPSFYFDYWGQGTLVTVSS VL: DIQMTQSPSSLSASVGDRVTITCKASQDVSIGVAWYQQKPGKAPKLLIYSASYRYTGVPSRFSGSGSGTDFTLTISSLQPEDFATYYCQQYYIYPYTFGQGTKVEIKR"
class = "Criterion not met"

[[record]]
binder = "Variant 14020 (antibody, name in Kabat numbering, V domains shown, also called v14020) VH: EVQLVESGGGLVQPGGSLRLSCAASGFTFQDYTMDWVRQAPGKGLEWVGDVNPNSGGSIYNQRFKGRFTFSVDRSKNTLYLQMNSLRAEDTAVYYCARNLGPWFYFDYWGQGTLVTVSS VL: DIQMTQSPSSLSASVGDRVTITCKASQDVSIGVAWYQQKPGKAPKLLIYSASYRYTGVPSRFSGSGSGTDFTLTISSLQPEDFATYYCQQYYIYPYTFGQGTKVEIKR"
class = "Criterion not met"

[[record]]
binder = "Variant 12471 (antibody, human IgG1, kappa, name in Kabat numbering, V domains shown, Kabat numbering; also called v12471; FSA version of v9996) VH: EVQLVESGGGLVQPGGSLRLSCAASGFTFADYTMDWVRQAPGKGLEWVGDVNPNSGGSIYNQRFKGRFTFSVDRSKNTLYLQMNSLRAEDTAVYYCARNLGPSFYFDYWGQGTLVTVSS VL: DIQMTQSPSSLSASVGDRVTITCKASQDVSIGVAWYQQKPGKAPKLLIYSASYRYTGVPSRFSGSGSGTDFTLTISSLQPEDFATYYCQQYYIYPATFGQGTKVEIKR"
class = "Criterion met"

